study_target: hVR1 (Homo sapiens, UniProt Q8NER1)
Construct: expressed in transfected cells; host or cells: HEK293
Sequence (Q8NER1 whole entry): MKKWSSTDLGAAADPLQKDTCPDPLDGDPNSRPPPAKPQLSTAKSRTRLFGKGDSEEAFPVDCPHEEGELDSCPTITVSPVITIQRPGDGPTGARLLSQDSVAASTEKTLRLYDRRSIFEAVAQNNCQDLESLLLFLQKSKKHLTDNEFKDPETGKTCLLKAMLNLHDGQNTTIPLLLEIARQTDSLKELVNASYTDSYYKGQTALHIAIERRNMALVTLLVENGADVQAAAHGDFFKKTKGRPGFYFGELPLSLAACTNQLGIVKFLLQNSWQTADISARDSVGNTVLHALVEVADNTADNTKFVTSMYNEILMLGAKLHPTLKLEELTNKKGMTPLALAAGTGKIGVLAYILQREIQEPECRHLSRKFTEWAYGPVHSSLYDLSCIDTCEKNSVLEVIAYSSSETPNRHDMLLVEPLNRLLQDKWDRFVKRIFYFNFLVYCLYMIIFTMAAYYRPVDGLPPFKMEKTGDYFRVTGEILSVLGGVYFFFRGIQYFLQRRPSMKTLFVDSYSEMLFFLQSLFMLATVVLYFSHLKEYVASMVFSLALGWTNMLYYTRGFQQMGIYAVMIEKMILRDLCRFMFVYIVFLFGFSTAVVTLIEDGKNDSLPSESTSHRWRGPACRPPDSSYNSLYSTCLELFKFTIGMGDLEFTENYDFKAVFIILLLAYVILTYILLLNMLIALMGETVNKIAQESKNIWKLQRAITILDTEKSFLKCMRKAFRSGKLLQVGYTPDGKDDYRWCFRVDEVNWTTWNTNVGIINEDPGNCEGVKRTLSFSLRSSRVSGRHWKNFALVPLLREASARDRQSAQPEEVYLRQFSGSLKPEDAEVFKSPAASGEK
assay_method_text: Human VR1 (hVR1) Functional Assay (FLIPR intracellular calcium, capsaicin challenge)
Type: cell-based
test_settings: test concentration 1 μM; capsaicin 0.030 μM; HEK293 cells expressing hVR1
outcome_measure: inhibition at 1 µM (%)

Would you please look over these solved cases?
compound: CS(=O)(=O)Nc1ccccc1-c1ccc2[nH]c(/C=C/c3ccc(C(F)(F)F)cc3)nc2c1 [Cpd 17]
unit_tag: %
inhibition at 1 µM: 100

compound: CC(C)(C)NS(=O)(=O)c1ccccc1-c1ccc2[nH]c(/C=C/c3ccc(C(F)(F)F)cc3)nc2c1 [Cpd 309]
unit_tag: %
inhibition at 1 µM: 73

compound: CC(C)c1ccc(CCc2nc3cc(-c4ccccc4S(N)(=O)=O)ccc3[nH]2)cc1 [Cpd 442]
unit_tag: %
inhibition at 1 µM: 96

compound: NS(=O)(=O)c1ccccc1-c1ccc2[nH]c(/C=C/c3cccc(F)c3F)nc2c1 [Cpd 359]
unit_tag: %
inhibition at 1 µM: 98

compound: CS(=O)(=O)Nc1ccccc1-c1ccc2[nH]c(/C=C/c3ccc(F)c(Br)c3)nc2c1 [Cpd 409]
unit_tag: %
inhibition at 1 µM: 43

compound: CC(=O)Nc1ccc(-c2ccc3[nH]c(/C=C/c4ccc(C(C)(C)C)cc4)nc3c2)cc1 [Cpd 8]
unit_tag: %
inhibition at 1 µM: 10

compound: CNS(=O)(=O)c1ccccc1-c1ccc2[nH]c(/C=C/c3ccccc3Cl)nc2c1 [Cpd 346]
unit_tag: %
inhibition at 1 µM: 87

compound: O=C(CO)c1ccccc1-c1ccc2[nH]c(/C=C/c3ccc(C(F)(F)F)cc3)nc2c1 [Cpd 311]
unit_tag: %
inhibition at 1 µM: 99

compound: CS(=O)(=O)Nc1ccccc1-c1ccc2[nH]c(/C=C/c3ccc(F)c(F)c3)nc2c1 [Cpd 28]
unit_tag: %
inhibition at 1 µM: 96

compound: CS(=O)(=O)Nc1ccccc1-c1ccc2[nH]c(/C=C/c3ccc(C(F)(F)F)cc3F)nc2c1 [Cpd 418]
unit_tag: %
inhibition at 1 µM: 100

[1] NS(=O)(=O)c1ccccc1-c1ccc2[nH]c(/C=C/c3ccc(F)c(C(F)(F)F)c3)nc2c1 [Cpd 369]
[2] CC(C)(C)OC(=O)Nc1ccccc1-c1cc2nc(/C=C/c3ccc(C(C)(C)C)cc3)[nH]c2cc1C(F)(F)F [Cpd 54]
[ask] Among 1 and 2 , which shows a numerically higher inhibition at 1 µM result? Pick one; state its label.
[reply] 1
(1: 99%, 2: 20%)

====

study_target: hVR1 (Homo sapiens)
Construct: expressed in transfected cells; host or cells: HEK293
assay_method_text: Human VR1 (hVR1) Functional Assay (FLIPR intracellular calcium, capsaicin challenge)
Format: cell-based
test_settings: test concentration 1 μM; capsaicin 0.030 μM; HEK293 cells expressing hVR1
outcome_measure: inhibition at 1 µM (%)

Would you please look over these solved cases?
compound: CC(C)(O)c1ccccc1-c1ccc2[nH]c(C3CC3c3ccc(OC(F)(F)F)cc3)nc2c1 (centres unmarked)
data_value: 94

compound: CCOC(=O)c1ccccc1-c1ccc2[nH]c(/C=C/c3ccc(C(F)(F)F)cc3)nc2c1
data_value: 98

compound: NS(=O)(=O)c1ccc(C(F)(F)F)cc1-c1ccc2[nH]c(/C=C/c3ccc(C(F)(F)F)cc3)nc2c1
data_value: 98

[A] NS(=O)(=O)c1ccccc1-c1ccc2[nH]c(/C=C/c3cc(F)ccc3F)nc2c1
[B] CC(=O)Nc1ccccc1-c1ccc2[nH]c(/C=C/c3ccc(SC(F)(F)F)cc3)nc2c1
[ask] Among A and B , which shows a numerically higher inhibition at 1 µM result? Pick one; state its label.
[reply] A
